Test system: NCI-H1876 complex spheroid growth, % test/control
Experiment: Anticancer human tumor NCI-H1876 cell line growth inhibition [Asc];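 further: compound exposure lasted 7 days starting three days after seeding; 100% = DMSO vehicle control wells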
Settings: second compound 0.00316 µM; first compound 3.16 µM; hits give low values
Value kind: viability, T/C (%)
The reply should contain only the number, in %.

Example results:
- Compound: "O=C(c1cc(Cc2n[nH]c(=O)c3ccccc23)ccc1F)N1CCN(C(=O)C2CC2)CC1 + CNC(C)C(=O)NC1CN(S(=O)(=O)c2cccc(S(=O)(=O)N3CCC4CCC(C(=O)NC(c5ccccc5)c5ccccc5)N4C(=O)C(NC(=O)C(C)NC)C3)c2)CCC2CCC(C(=O)NC(c3ccccc3)c3ccccc3)N2C1=O"
  Measured target: "NCI-H1876 complex spheroid growth, % test/control"
  Value kind: "viability, T/C"
  Unit text: "%"
  Measured number: 60.6
- Compound: "C=C(F)C(=O)N1CCN(c2nc(OCC3CCCN3C)nc3c2CCN(c2cccc4cccc(Cl)c24)C3)CC1CC#N (centres undefined) + CNC(C)C(=O)NC1CN(S(=O)(=O)c2cccc(S(=O)(=O)N3CCC4CCC(C(=O)NC(c5ccccc5)c5ccccc5)N4C(=O)C(NC(=O)C(C)NC)C3)c2)CCC2CCC(C(=O)NC(c3ccccc3)c3ccccc3)N2C1=O"
  Measured target: "NCI-H1876 complex spheroid growth, % test/control"
  Value kind: "viability, T/C"
  Unit text: "%"
  Measured number: 99
- Compound: "C=CC(=O)N1CCN(c2nc(=O)n(-c3c(C)ccnc3C(C)C)c3nc(-c4c(O)cccc4F)c(F)cc23)C(C)C1 (centres undefined) + CNC(C)C(=O)NC1CN(S(=O)(=O)c2cccc(S(=O)(=O)N3CCC4CCC(C(=O)NC(c5ccccc5)c5ccccc5)N4C(=O)C(NC(=O)C(C)NC)C3)c2)CCC2CCC(C(=O)NC(c3ccccc3)c3ccccc3)N2C1=O"
  Measured target: "NCI-H1876 complex spheroid growth, % test/control"
  Value kind: "viability, T/C"
  Unit text: "%"
  Measured number: 121

API: the following record is the query input.
Task: Requested read-out: viability, T/C. Entry: C#Cc1c(F)ccc2cc(O)cc(-c3ncc4c(N5CC6CCC(C5)N6)nc(OCC56CCCN5CC(F)C6)nc4c3F)c12 (centres undefined) + CNC(C)C(=O)NC1CN(S(=O)(=O)c2cccc(S(=O)(=O)N3CCC4CCC(C(=O)NC(c5ccccc5)c5ccccc5)N4C(=O)C(NC(=O)C(C)NC)C3)c2)CCC2CCC(C(=O)NC(c3ccccc3)c3ccccc3)N2C1=O
Result: 93.5

----------
Each entry below lists one item and its recorded viability, T/C value.
Test system: NCI-H1876 complex spheroid growth, % test/control
Assay: Anticancer human tumor NCI-H1876 cell line growth inhibition [Asc];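 further: compound exposure lasted 7 days starting three days after seeding; 100% = DMSO vehicle control wells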
Settings: second compound 0.03 µM; first compound 1 µM; hits give low values
Reply with just the number (in %).

- Molecule: "O=C(c1ccc(F)c(F)c1Nc1ccc(I)cc1F)N1CC(O)([C@@H]2CCCCN2)C1 + CCN1C(C(=O)NC23CCC(C(=O)O)(CC2)CC3)C(c2cccc(Cl)c2F)C2(C(=O)Nc3cc(Cl)ccc32)C12CCCCC2"
  Measured number: 82.3
- Molecule: "O=C(c1cc(Cc2n[nH]c(=O)c3ccccc23)ccc1F)N1CCN(C(=O)C2CC2)CC1 + CCN1C(C(=O)NC23CCC(C(=O)O)(CC2)CC3)C(c2cccc(Cl)c2F)C2(C(=O)Nc3cc(Cl)ccc32)C12CCCCC2"
  Measured number: 108
- Molecule: "CCN1CCN(Cc2ccc(Nc3ncc(F)c(-c4cc(F)c5nc(C)n(C(C)C)c5c4)n3)nc2)CC1 + CCN1C(C(=O)NC23CCC(C(=O)O)(CC2)CC3)C(c2cccc(Cl)c2F)C2(C(=O)Nc3cc(Cl)ccc32)C12CCCCC2"
  Measured number: 133

Moving on to another molecule below.
Task: Field request: viability, T/C | item: C=CC(=O)N1CCN(c2nc(=O)n(-c3c(C)ccnc3C(C)C)c3nc(-c4c(O)cccc4F)c(F)cc23)C(C)C1 (centres undefined) + CCN1C(C(=O)NC23CCC(C(=O)O)(CC2)CC3)C(c2cccc(Cl)c2F)C2(C(=O)Nc3cc(Cl)ccc32)C12CCCCC2
Result: 103

----------
Tested on: NCI-H1876 complex spheroid growth, % test/control
Test: Anticancer human tumor NCI-H1876 cell line growth inhibition [Asc];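 further: compound exposure lasted 7 days starting three days after seeding; 100% = DMSO vehicle control wells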
Settings: second compound 0.1 µM; first compound 0.949 µM; hits give low values
Value kind: viability, T/C (%)
Report the value in % with no unit label.

- Molecule: "Cc1nc(N2CCC3(CC2)COC(C)C3N)c(CO)nc1Sc1ccnc(N)c1Cl (centres undefined) + CNC(C)C(=O)NC1CN(S(=O)(=O)c2cccc(S(=O)(=O)N3CCC4CCC(C(=O)NC(c5ccccc5)c5ccccc5)N4C(=O)C(NC(=O)C(C)NC)C3)c2)CCC2CCC(C(=O)NC(c3ccccc3)c3ccccc3)N2C1=O"
  Value kind: "viability, T/C"
  Measured number: 86.4
- Molecule: "CCN1C(C(=O)NC23CCC(C(=O)O)(CC2)CC3)C(c2cccc(Cl)c2F)C2(C(=O)Nc3cc(Cl)ccc32)C12CCCCC2 (centres undefined) + CNC(C)C(=O)NC1CN(S(=O)(=O)c2cccc(S(=O)(=O)N3CCC4CCC(C(=O)NC(c5ccccc5)c5ccccc5)N4C(=O)C(NC(=O)C(C)NC)C3)c2)CCC2CCC(C(=O)NC(c3ccccc3)c3ccccc3)N2C1=O"
  Value kind: "viability, T/C"
  Measured number: 122
- Molecule: "Cc1nc(N2CCC3(CC2)COC(C)C3N)c(CO)nc1Sc1ccnc(N)c1Cl (centres undefined) + Cc1c(S(C)(=O)=O)c(-c2cc(F)cc(N3CCN(c4ccc(NS(=O)(=O)c5ccc(NC(CCN6CCC(C(=O)OCCCP(=O)(O)O)CC6)CSc6ccccc6)c(S(=O)(=O)C(F)(F)F)c5)cc4)CC3)c2)c(-c2ccc(Cl)cc2)n1C(C)C"
  Value kind: "viability, T/C"
  Measured number: 84.2

Now turn to the next molecule.
Task: Look at this molecule and give its reported viability, T/C. CCN1C(C(=O)NC23CCC(C(=O)O)(CC2)CC3)C(c2cccc(Cl)c2F)C2(C(=O)Nc3cc(Cl)ccc32)C12CCCCC2 (centres undefined) + Cc1c(S(C)(=O)=O)c(-c2cc(F)cc(N3CCN(c4ccc(NS(=O)(=O)c5ccc(NC(CCN6CCC(C(=O)OCCCP(=O)(O)O)CC6)CSc6ccccc6)c(S(=O)(=O)C(F)(F)F)c5)cc4)CC3)c2)c(-c2ccc(Cl)cc2)n1C(C)C
Result: 124

----------
The entries below come with measured viability, T/C values attached.
System: NCI-H1876 complex spheroid growth, % test/control
Assay: Anticancer human tumor NCI-H1876 cell line growth inhibition [Asc];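 further: compound exposure lasted 7 days starting three days after seeding; 100% = DMSO vehicle control wells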
Details: second compound 3.16 µM; first compound 3.16 µM; hits give low values

- Compound: "C=CC(=O)N1CCN(c2nc(=O)n(-c3c(C)ccnc3C(C)C)c3nc(-c4c(O)cccc4F)c(F)cc23)C(C)C1 (centres undefined) + Cc1c(S(C)(=O)=O)c(-c2cc(F)cc(N3CCN(c4ccc(NS(=O)(=O)c5ccc(NC(CCN6CCC(C(=O)OCCCP(=O)(O)O)CC6)CSc6ccccc6)c(S(=O)(=O)C(F)(F)F)c5)cc4)CC3)c2)c(-c2ccc(Cl)cc2)n1C(C)C"
  viability, T/C: "114%"
- Compound: "O=C(c1cc(Cc2n[nH]c(=O)c3ccccc23)ccc1F)N1CCN(C(=O)C2CC2)CC1 + Cc1c(S(C)(=O)=O)c(-c2cc(F)cc(N3CCN(c4ccc(NS(=O)(=O)c5ccc(NC(CCN6CCC(C(=O)OCCCP(=O)(O)O)CC6)CSc6ccccc6)c(S(=O)(=O)C(F)(F)F)c5)cc4)CC3)c2)c(-c2ccc(Cl)cc2)n1C(C)C"
  viability, T/C: "86.8%"
- Compound: "C=C(F)C(=O)N1CCN(c2nc(OCC3CCCN3C)nc3c2CCN(c2cccc4cccc(Cl)c24)C3)CC1CC#N (centres undefined) + Cc1c(S(C)(=O)=O)c(-c2cc(F)cc(N3CCN(c4ccc(NS(=O)(=O)c5ccc(NC(CCN6CCC(C(=O)OCCCP(=O)(O)O)CC6)CSc6ccccc6)c(S(=O)(=O)C(F)(F)F)c5)cc4)CC3)c2)c(-c2ccc(Cl)cc2)n1C(C)C"
  viability, T/C: "86.6%"

Next compound, viability, T/C to be filled in.
Task: What reported viability, T/C corresponds to C#Cc1c(F)ccc2cc(O)cc(-c3ncc4c(N5CC6CCC(C5)N6)nc(OCC56CCCN5CC(F)C6)nc4c3F)c12 (centres undefined) + Cc1c(S(C)(=O)=O)c(-c2cc(F)cc(N3CCN(c4ccc(NS(=O)(=O)c5ccc(NC(CCN6CCC(C(=O)OCCCP(=O)(O)O)CC6)CSc6ccccc6)c(S(=O)(=O)C(F)(F)F)c5)cc4)CC3)c2)c(-c2ccc(Cl)cc2)n1C(C)C on NCI-H1876 complex spheroid growth, % test/control?
Result: 87.3%

Reference for the values: PubChem BioAssay AID1963441
